Form field: reverse-splicing fitness (one value per entry).
B1: Azoarcus group I ribozyme (parent)
chain: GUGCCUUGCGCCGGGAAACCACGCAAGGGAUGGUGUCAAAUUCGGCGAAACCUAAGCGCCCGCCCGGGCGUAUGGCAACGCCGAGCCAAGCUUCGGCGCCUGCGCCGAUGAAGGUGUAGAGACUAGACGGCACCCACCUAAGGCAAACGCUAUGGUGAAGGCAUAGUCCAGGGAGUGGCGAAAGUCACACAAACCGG

# Variants of: B1
# experimentalDetails: reverse-splicing fitness (ratio to wild type); higher = more active; in vitro selection; Mg2+ level not given
Lab note: jot down the number only; don't add units.

Would you please look over these solved cases?
C82U A111G A120C C150U C169G U176A; 0.0205
C82G A111C A120C C169G U176G; 0.00714

Fill in: reverse-splicing fitness of C82A A111G A120G C150G C169G U176A is ___
0.00689

Form field: reported reverse-splicing fitness of C82A A111G A145G C169A U176A
0.0201
